meta.source: ChEMBL document CHEMBL1144359

test system: HL-60; assay: In-vitro inhibitory concentration for human tumor HL60 cell-line was determined using […] assay after 3 days of incubation; assay type: functional, cell-based; conditions: HL-60, 72 h

{"molecule": "CCc1c2c(nc3ccc4occc4c13)-c1cc3c(c(=O)n1C2)COC(=O)[C@]3(O)CC", "system": "HL-60", "IC50": "0.28 nM"}
{"molecule": "CC[C@@]1(O)C(=O)OCc2c1cc1n(c2=O)Cc2cc3c4c(ccc3nc2-1)OC(O)C4 (stereo partly drawn)", "system": "HL-60", "IC50": "8.4 nM"}
{"molecule": "CC[C@@]1(O)C(=O)OCc2c1cc1n(c2=O)Cc2cc3c4c(ccc3nc2-1)OC(C)C4 (stereo partly drawn)", "system": "HL-60", "IC50": "3.1 nM"}
